Reference source: patent US8614201B2

# assay-target: Human TRPA1 (Homo sapiens, UniProt O75762)
# Sequence (O75762 whole entry): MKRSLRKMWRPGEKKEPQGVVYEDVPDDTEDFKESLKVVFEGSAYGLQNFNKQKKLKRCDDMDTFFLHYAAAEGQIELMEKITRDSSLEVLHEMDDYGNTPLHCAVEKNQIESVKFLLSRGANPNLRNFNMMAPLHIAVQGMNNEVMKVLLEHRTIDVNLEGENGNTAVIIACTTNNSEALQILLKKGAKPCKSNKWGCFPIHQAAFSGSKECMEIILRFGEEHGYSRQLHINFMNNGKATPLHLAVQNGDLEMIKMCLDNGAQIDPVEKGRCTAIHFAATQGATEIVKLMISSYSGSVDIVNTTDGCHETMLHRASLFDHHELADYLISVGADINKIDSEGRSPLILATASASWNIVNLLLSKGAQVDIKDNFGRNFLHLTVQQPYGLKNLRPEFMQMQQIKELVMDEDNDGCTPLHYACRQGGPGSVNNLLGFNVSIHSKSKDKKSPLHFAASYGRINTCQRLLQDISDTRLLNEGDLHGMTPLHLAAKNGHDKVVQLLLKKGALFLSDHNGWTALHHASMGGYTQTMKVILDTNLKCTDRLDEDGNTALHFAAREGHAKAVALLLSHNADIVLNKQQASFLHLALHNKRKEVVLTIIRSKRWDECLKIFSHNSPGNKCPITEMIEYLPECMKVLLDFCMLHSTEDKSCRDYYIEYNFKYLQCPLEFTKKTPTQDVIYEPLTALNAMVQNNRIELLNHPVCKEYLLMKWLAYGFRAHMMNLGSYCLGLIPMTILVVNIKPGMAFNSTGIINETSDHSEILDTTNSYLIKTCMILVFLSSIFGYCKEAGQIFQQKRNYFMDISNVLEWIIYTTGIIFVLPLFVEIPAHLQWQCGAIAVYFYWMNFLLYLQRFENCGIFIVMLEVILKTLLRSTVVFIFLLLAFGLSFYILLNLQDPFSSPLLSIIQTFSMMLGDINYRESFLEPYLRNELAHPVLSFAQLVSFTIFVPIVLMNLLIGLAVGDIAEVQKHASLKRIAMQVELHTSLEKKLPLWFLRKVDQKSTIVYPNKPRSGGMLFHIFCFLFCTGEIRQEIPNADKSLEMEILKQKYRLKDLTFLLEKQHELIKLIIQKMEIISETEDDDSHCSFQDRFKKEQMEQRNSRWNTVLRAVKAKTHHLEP
# assay-procedure: Alternative TRPA1 Ca2+ fluorometry assay (hTRPA1/TREx-HEK293 cells, Fluo-4, FDSS 6000)
# Assay type: cell-based
# Parameters: expressed in transfected cells
# assay-context: Fluo-4-AM, agonist 6,11-dihydro-5H-dibenzo[b,e]azepine-10-carboxylic acid methyl ester 25 nM, procedure used for Examples 184, 190 to 192, 194 to 316
IC50 by entry:
measurement-name: IC50

| substance-smiles | assay-target | experimental-value |
| --- | --- | --- |
| O=C(NCc1cc(-c2ccc3c(c2)OCO3)nc(NC2CCCC2)n1)[C@@H]1CCCN1S(=O)(=O)c1ccc(F)cc1 | Human TRPA1 (Homo sapiens, UniProt O75762) | ~2690 nM |
| O=C(NCc1cc(-c2ccc(Br)cc2)nc(N2CCN(c3ccc(F)cc3)CC2)n1)[C@@H]1CCCN1S(=O)(=O)c1ccc(F)cc1 | Human TRPA1 (Homo sapiens, UniProt O75762) | 2510 nM |
| O=C(NCc1cc(-c2cccc(Cl)c2)nc(N2CCN(c3ccccc3F)CC2)n1)[C@@H]1CCCN1S(=O)(=O)c1ccc(F)cc1 | Human TRPA1 (Homo sapiens, UniProt O75762) | 5010 nM |
| O=C(NCc1cc(-c2ccc(C(F)(F)F)cc2)nc(N2CCN(c3ccccc3F)CC2)n1)[C@@H]1CCCN1S(=O)(=O)c1ccc(F)c(Cl)c1 | Human TRPA1 (Homo sapiens, UniProt O75762) | 3550 nM |
| O=C(NCc1cc(-c2ccc(C(F)(F)F)cc2)nc(NC2CC2)n1)[C@@H]1CCCN1S(=O)(=O)c1ccc(F)cc1 | Human TRPA1 (Homo sapiens, UniProt O75762) | ~588 nM |
| O=C(NCc1cc(-c2ccc(C(F)(F)F)cc2)nc(N2CCN(c3ccccc3F)CC2)n1)[C@@H]1CCCN1S(=O)(=O)c1ccc(Cl)s1 | Human TRPA1 (Homo sapiens, UniProt O75762) | 191 nM |

----------
# assay-target: Human TRPA1 (Homo sapiens, UniProt O75762)
# assay-procedure: Alternative TRPA1 Ca2+ fluorometry assay (hTRPA1/TREx-HEK293 cells, Fluo-4, FDSS 6000)
# Format: cell-based
# Design: expressed in transfected cells
# assay-context: Fluo-4-AM, agonist 6,11-dihydro-5H-dibenzo[b,e]azepine-10-carboxylic acid methyl ester 25 nM, procedure used for Examples 184, 190 to 192, 194 to 316
pIC50: −log10 of the molar value.
Parameter threshold = 6. Response is label 1 when pIC50 meets or exceeds it, else label 0.

| substance-smiles | cat |
| --- | --- |
| N#Cc1cccc(-c2cc(CNC(=O)[C@@H]3CCCN3S(=O)(=O)c3ccc(F)cc3)nc(N3CCN(c4ccccc4F)CC3)n2)c1 | label 0 |
| O=C(NCc1cc(-c2ccc3c(c2)OCO3)nc(N2CCN(c3ccccn3)CC2)n1)[C@@H]1CCCN1S(=O)(=O)c1ccc(F)cc1 | label 0 |
| O=C(NCc1cc(-c2ccc(C(F)(F)F)cc2)nc(NCCc2cccnc2)n1)[C@@H]1CCCN1S(=O)(=O)c1ccc(F)cc1 | label 1 |
| O=C(NCc1cc(-c2cccc(C(F)(F)F)c2)nc(N2CCN(c3ccccc3F)CC2)n1)[C@@H]1CCCN1S(=O)(=O)c1ccc(F)cc1 | label 0 |
| CC(C)(C)c1ccc(S(=O)(=O)N2CCC[C@H]2C(=O)NCc2cc(-c3ccc(C(F)(F)F)cc3)nc(N3CCN(c4ccccc4F)CC3)n2)cc1 | label 0 |
| O=C(NCc1cc(-c2ccc(C(F)(F)F)cc2)nc(-c2ccc(C(F)(F)F)cc2)n1)[C@@H]1CCCN1S(=O)(=O)c1ccc(F)cc1 | label 1 |
| O=C(NCc1cc(-c2ccc(C(F)(F)F)cc2)nc(N2CCN(c3ccccc3F)CC2)n1)[C@@H]1CCCN1S(=O)(=O)c1ccc(F)cc1F | label 0 |
